# cell viability annotations
System: Caco-2
Test: cell viability relative to DMSO; higher = less toxic
Details: 72 h; 1 nM
Structures can show the parent of a compound that is named as a salt.
Give just the number in %; leave the unit off.

Below, 8 compounds whose answers are already recorded.
{"columns": ["compound", "study.system", "unit.abbrev", "cell viability"],
 "data": [
  ["CC(C)CCNC(=O)[C@H](CC(C)C)NC(=O)[C@H]1O[C@@H]1C(=O)O [loxistatin-acid]", "Caco-2", "%", 103],
  ["O=C(Cc1ccc(Cl)c(Cl)c1)N1CCCC[C@@H]1CN1CCCC1", "Caco-2", "%", 85.2],
  ["COc1ccc(CC(=O)NC(/N=C(\\NC#N)Nc2cccc3ncccc23)C(C)(C)C)cc1OC (stereo not drawn)", "Caco-2", "%", 101],
  ["O=C(O)CCCCC(=O)O [adipic-acid]", "Caco-2", "%", 89],
  ["CC(C)=CCC[C@]1(C)C=Cc2c(O)c3c(c(CC=C(C)C)c2O1)O[C@]12C(=C[C@@H]4C[C@H]1C(C)(C)O[C@@]2(C/C=C(/C)C(=O)O)C4=O)C3=O [gambogic-acid]", "Caco-2", "%", 90.7],
  ["CCSC(=N)N [EIT-hydrobromide]", "Caco-2", "%", 97.7],
  ["COc1ccc(NS(=O)(=O)c2ccc(I)cc2)cc1N1CCN(C)CC1", "Caco-2", "%", 109],
  ["COc1ccc(NS(=O)(=O)c2ccc(N)cc2)nn1 [sulfamethoxypyridazine]", "Caco-2", "%", 97.9]
]}

Given O=c1c(O)c(-c2ccc(O)c(O)c2)oc2cc(O)ccc12 [fisetin] , state its recorded cell viability.
96.8

Given C[C@@H]1C[C@H]2[C@@H]3C[C@H](F)C4=CC(=O)C=C[C@]4(C)[C@@]3(F)[C@@H](O)C[C@]2(C)[C@@]1(O)C(=O)CO [flumethasone] , state its recorded cell viability.
84.6

Given CC(/C=C1\SC(=S)N(CC(=O)O)C1=O)=C\c1ccccc1 [epalrestat] , state its recorded cell viability.
92.6

Given Nc1ccccc1NC(=O)c1ccc(CNc2nccc(-c3cccnc3)n2)cc1 [mocetinostat] , state its recorded cell viability.
95.6

###

# relative viability EC50 annotations
System: HepG2
Test: relative viability EC50 (midpoint between 100% and the lowest measured viability); higher = less toxic
Settings: 72 h

Below, 4 molecules whose answers are already recorded.
{"columns": ["molecule", "study.system", "measured"],
 "data": [
  ["CC(C)C[C@H](NC(=O)CNC(=O)c1cc(Cl)ccc1Cl)B1OC(=O)C(CC(=O)O)(CC(=O)O)O1 [MLN9708]", "HepG2", "0.139 µM"],
  ["N#Cc1ncccn1", "HepG2", "> 10 µM"],
  ["Cc1ccc(N2CCN(CC[C@H]3NC(=O)c4ccccc43)CC2)cc1C", "HepG2", "> 10 µM"],
  ["CN(C)C(=O)C(=O)c1cn(C)c2cc(Cl)c(C(=O)N3CCC(Cc4ccc(F)cc4)CC3)cc12", "HepG2", "> 10 µM"]
]}

Lookup: relative viability EC50 / HepG2 / Cc1cc(CCC[C@H](CC(=O)NO)C(=O)N[C@H](C(=O)N[C@H](C)c2ccccc2)C(C)(C)C)ccc1-c1ccccc1
3.6 µM

Lookup: relative viability EC50 / HepG2 / COC(=O)[C@@H](N)CCCNC(=N)N[N+](=O)[O-]
> 10 µM

Lookup: relative viability EC50 / HepG2 / CC(C)[C@@]1(NC(=O)[C@@H]2C[C@@H]3c4cccc5[nH]cc(c45)C[C@H]3N(C)C2)O[C@@]2(O)[C@@H]3CCCN3C(=O)[C@H](Cc3ccccc3)N2C1=O [dihydroergocristine]
> 10 µM

Lookup: relative viability EC50 / HepG2 / O=P(O)(NCCCl)NCCCl [palifosfamide]
> 10 µM

Lookup: relative viability EC50 / HepG2 / CCCC[C@H]1C(=O)N(c2ccccc2)N(c2ccc(O)cc2)C1=O
2.66 µM
